biological target: YES1 (human) (UniProt P07947); experiment: radiometric filter-binding kinase assay; details: compound 0.1 µM
Sequence (P07947 whole entry, looked up): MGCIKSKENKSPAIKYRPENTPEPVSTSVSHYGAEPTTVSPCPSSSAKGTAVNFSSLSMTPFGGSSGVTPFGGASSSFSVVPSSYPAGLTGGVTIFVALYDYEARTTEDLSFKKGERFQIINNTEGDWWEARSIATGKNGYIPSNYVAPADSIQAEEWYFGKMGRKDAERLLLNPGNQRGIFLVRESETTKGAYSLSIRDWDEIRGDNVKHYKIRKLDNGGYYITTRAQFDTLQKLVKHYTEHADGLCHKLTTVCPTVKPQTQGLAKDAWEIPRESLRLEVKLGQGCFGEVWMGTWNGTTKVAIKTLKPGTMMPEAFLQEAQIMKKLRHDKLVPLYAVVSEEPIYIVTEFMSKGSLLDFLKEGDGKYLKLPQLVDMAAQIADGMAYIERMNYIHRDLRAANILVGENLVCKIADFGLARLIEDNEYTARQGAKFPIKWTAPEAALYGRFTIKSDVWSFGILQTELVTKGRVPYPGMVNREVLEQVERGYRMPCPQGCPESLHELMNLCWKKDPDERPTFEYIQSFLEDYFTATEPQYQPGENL
attributeMeasured: residual activity (%)
Number in %, nothing else.

| molecule | measurementUnit | experimentalValue |
| --- | --- | --- |
| COc1cc(O)c2c(c1)[C@H]1OC1C[C@H](O)[C@H](O)C(=O)/C=C\C[C@H](C)OC2=O (some centres undefined) | % | 85 |

Shift focus to the following entry.
Documented residual activity of O=C(Nc1nc2cc(C(F)(F)F)cc(NC3CC3)n2n1)c1cccnc1 : 87

---

biological target: CSNK1G2 (human); experiment: radiometric filter-binding kinase assay; settings: compound 1.0 µM
attributeMeasured: residual activity

Documented residual activity of Cc1cc(NC(=O)c2cccc(NC(=O)/C=C/CN(C)C)c2)ccc1Nc1nccc(-c2cccnc2)n1 : 87%

Documented residual activity of Cc1ccc(-c2ccc3c(ccc4sc5c(c43)NC[C@@H](C)NC5=O)n2)cn1 : 112%

Documented residual activity of COc1cc(O)c2c(c1)[C@H]1OC1C[C@H](O)[C@H](O)C(=O)/C=C\C[C@H](C)OC2=O (some centres undefined) : 109%

Documented residual activity of C=C1C(=O)OC2C1CC/C(C)=C/CCC1(C)OC21 (centres undefined) : 124%

Documented residual activity of CN(C)C/C=C/C(=O)Nc1cccc(C(=O)Nc2ccc(Nc3nccc(-c4cccnc4)n3)cc2)c1 : 88%

Documented residual activity of NCC(=O)Nc1ccc(-n2nc(C(F)(F)F)cc2-c2ccc3c(ccc4ccccc43)c2)cc1 : 93%
